target: HIV Env of isolate BJOX009000.02.4 (clade AE) (HIV); assay: cell-based or functional assay
attribute.measured: IC80 (µg/ml) with constrains (µg/mL)

ePGDM9 (antibody, V domains shown) VH: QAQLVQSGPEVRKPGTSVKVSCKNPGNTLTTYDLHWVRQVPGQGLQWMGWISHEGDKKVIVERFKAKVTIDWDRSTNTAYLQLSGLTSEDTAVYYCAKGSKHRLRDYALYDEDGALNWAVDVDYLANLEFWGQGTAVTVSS VL: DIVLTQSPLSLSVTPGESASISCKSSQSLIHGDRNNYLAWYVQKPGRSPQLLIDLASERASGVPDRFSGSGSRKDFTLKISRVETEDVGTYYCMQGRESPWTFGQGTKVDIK; 0.936
PGDM1400 (antibody, V domains shown) VH: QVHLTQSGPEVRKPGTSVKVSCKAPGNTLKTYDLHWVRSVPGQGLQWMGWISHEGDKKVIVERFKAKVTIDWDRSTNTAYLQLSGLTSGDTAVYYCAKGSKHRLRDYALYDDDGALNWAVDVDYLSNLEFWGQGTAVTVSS VL: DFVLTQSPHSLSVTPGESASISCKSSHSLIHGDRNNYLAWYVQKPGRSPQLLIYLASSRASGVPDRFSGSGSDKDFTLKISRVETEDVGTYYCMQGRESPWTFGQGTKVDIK; 4.42
ePGDM13 (antibody, V domains shown) VH: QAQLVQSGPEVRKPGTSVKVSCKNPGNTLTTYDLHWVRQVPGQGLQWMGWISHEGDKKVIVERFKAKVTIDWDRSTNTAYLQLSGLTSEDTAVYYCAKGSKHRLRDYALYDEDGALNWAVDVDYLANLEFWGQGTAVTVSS VL: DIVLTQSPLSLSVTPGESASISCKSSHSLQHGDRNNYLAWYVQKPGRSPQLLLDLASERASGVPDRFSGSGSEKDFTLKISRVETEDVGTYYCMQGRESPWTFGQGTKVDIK; 1.06
ePGDM5 (antibody, V domains shown) VH: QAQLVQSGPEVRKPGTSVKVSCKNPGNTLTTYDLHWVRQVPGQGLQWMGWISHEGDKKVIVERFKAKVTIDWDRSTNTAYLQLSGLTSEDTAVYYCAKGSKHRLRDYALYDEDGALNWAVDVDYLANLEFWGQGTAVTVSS VL: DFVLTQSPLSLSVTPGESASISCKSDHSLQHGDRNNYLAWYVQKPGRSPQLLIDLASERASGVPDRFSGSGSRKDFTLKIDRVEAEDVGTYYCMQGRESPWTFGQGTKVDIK; 1.18
